# ASSAY TARGET: T1, human MSLN-FL-his protein (human, UniProt Q13421 296-580)
# T1 construct: made in HEK293E cells, purified on nickel column; also called hMSLN-FL-his; human MSLN full-length protein; not shown: His tag
# T1 sequence (Q13421 other isoform, or with tags, fused parts or gaps): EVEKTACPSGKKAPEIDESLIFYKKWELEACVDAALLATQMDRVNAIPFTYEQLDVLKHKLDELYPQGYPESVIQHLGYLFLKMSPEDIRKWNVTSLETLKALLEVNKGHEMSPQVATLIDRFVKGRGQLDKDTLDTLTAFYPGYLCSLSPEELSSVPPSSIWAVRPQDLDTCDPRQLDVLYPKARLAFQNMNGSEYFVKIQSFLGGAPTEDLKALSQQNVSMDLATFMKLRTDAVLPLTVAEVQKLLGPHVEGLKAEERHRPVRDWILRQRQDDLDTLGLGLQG
# METHOD: competitive ELISA; row F2.24.10; note: test concentration or dose not given here
MEASURED PROPERTY: competition rate (%)
One number for each entry, in %.

Observe how each entry below is paired with its result.
{"columns": ["BINDER", "TEST RESULT"],
 "data": [
  ["S009-F2.39.3 (antibody, human IgG1, kappa, V domains shown, human-murine chimeric antibody, human IgG1/kappa constant regions) VH: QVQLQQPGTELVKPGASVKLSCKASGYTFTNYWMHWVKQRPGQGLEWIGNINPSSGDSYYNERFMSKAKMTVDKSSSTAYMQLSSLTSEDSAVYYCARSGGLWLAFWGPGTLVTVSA VL: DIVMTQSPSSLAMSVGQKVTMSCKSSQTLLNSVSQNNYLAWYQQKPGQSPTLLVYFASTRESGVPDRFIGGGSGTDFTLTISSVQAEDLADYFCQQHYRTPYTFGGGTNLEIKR", -13],
  ["S009-F2.16.10 (antibody, human IgG1, kappa, V domains shown, human-murine chimeric antibody, human IgG1/kappa constant regions) VH: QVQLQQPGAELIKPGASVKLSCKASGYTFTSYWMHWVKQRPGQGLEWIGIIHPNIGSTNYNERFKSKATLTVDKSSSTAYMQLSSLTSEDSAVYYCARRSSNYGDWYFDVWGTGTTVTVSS VL: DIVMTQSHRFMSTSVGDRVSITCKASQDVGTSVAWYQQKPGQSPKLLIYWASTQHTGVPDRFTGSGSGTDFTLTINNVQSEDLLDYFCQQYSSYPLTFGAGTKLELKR", 88]
]}

Parameters: items (list). Returns: competition rate for each item.
1. S009-F2.13.3 (antibody, human IgG1, kappa, V domains shown, human-murine chimeric antibody, human IgG1/kappa constant regions) VH: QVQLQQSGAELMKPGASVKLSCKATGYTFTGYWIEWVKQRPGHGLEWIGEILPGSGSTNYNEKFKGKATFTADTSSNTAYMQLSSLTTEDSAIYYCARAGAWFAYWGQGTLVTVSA VL: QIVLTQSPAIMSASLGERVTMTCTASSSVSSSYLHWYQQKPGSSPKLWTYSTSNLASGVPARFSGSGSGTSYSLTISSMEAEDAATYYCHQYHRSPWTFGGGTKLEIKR
2. S009-F1.2.12 (antibody, human IgG1, kappa, V domains shown, human-murine chimeric antibody, human IgG1/kappa constant regions) VH: QVQLKQTGPGLVQPSQSLSITCTVSGFSLTNYAVHWVRQSPGKGLEWLGVIWSGGATDYNTVFISRLSISKDNSKSQVFFKVNSLQVDDTAIYYCARTGSGYAMDYWGQGTSVTVSS VL: DIVLTQSPATLSVTPGDRVSLSCRTSHNVNTYLHWYQQKSHESPRLLIKYASQSISEIPSRFSGSGSGTNFTLSINSVETEDFGMYFCHQTNRWPLTFGAGTKLELKR
3. S009-F2.58.8 (antibody, human IgG1, kappa, V domains shown, human-murine chimeric antibody, human IgG1/kappa constant regions) VH: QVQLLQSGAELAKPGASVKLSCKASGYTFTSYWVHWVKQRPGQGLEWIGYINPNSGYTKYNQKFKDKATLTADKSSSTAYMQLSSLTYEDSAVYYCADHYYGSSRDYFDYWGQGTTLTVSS VL: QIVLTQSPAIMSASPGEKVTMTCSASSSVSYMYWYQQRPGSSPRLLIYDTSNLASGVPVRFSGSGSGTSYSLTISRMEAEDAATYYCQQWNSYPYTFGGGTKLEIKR
4. S009-F1.35.24 (antibody, human IgG1, kappa, V domains shown, human-murine chimeric antibody, human IgG1/kappa constant regions) VH: EVQLQQSEPELVKPGASVRISCKASGYSFTDYYMHWVKQSPENRLEWIGEINPSTGGTSYNPKFKDKATLTVDKSSSTAYMQLKSLTSEESAVYYCTRYHYYGSSSYVMDYWGQGTSVTVSS VL: QIVLTQSPAILSASPGERVTMTCSASSSVYHMHWFQQKSGTSPKRWVYDTSKLASGVPARFSGSGSGTSYSLTISSMEAEDAATYYCQHWRTNPLTFGAGTKLELKR
5. Tab107 (YP3, hIgG1) (antibody, V domains shown, Control antibody; VH and VL recombined into human IgG1 CH and CL expression vectors; also called YP3 human IgG1 antibody) VH: QEQLVESGGGLVQPGASLTLTCTASGIDFSRYYMCWVRQAPGKGLEGIACIYIGGSGSTYYASWAKGRFTISKASSTTVTLQMTSLTAADTATYFCARGTNLNYIFRLWGPGTLVTVSS VL: DVVMTQTPSPVSAAVGGTVTIKCQASQSINNGLAWYQQKPGQPPRLLIYSASNLESGVPSRFKGSGSGTEFTLTISDLECDDAATYYCQCIWDGNSYVNAFGGGTEVVVRT
6. S009-F2.23.12 (antibody, human IgG1, kappa, V domains shown, human-murine chimeric antibody, human IgG1/kappa constant regions) VH: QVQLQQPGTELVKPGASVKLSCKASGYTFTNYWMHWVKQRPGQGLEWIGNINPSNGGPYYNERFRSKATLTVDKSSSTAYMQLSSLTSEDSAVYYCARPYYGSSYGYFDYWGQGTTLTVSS VL: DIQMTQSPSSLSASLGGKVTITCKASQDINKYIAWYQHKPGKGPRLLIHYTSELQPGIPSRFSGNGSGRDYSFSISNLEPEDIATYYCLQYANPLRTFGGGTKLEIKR

Return:
-65
-17
6
13
-19
2
